# Test system: HeLa
# ASSAY REMARKS: In vitro antitumor activity against human HeLa cell line at 72 h
# Type: functional
# COND: read-out: ID50 (the source's name)
Assign labels as follows, please: label 1 for IC50 below 100 µM; label 0 for IC50 equal to or exceeding 100 µM.

Here are 3 molecules together with their reported answers.
| MOLECULE | TESTED ON | CLASS ASSIGNMENT |
| --- | --- | --- |
| CCCCCC[C@@H]([C@@H](C)O)n1cnc2c(N)ncnc21 | HeLa | label 0 |
| Nc1ncnc2c1ncn2[C@@H]1O[C@H](CO)[C@@H](O)[C@@H]1O | HeLa | label 1 |
| CCCCCCC(C(C)O)n1cnc2c(N)nccc21 (stereo unspecified) | HeLa | label 0 |

Data request: Is it true that IC50 reported for CCCCCCC(C(C)O)n1cnc2c(N)ccnc21 (stereo unspecified) is less than 100 µM?
Data returned: label 0

Data request: Determine if CCCCCCC(C(C)O)n1cnc2c(N)cccc21 (stereo unspecified) shows IC50 strictly lower than 100 µM.
Data returned: label 1

Data request: Here's an entry: CCCCCCC(C(C)O)n1ccc2c(N)ncnc21 (stereo unspecified) . Is its IC50 below 100 µM?
Data returned: label 1

Sourced from ChEMBL document CHEMBL1124034
